This listing pairs compounds with measured MIC ratio(*) on Ea289ΔacrB Ery.
Tested on: Ea289ΔacrB (Ea294)
Experiment: MIC of antibiotics ± test compound (MIC ratio), micro-broth dilution
Format: cell-based, Enterobacter aerogenes
Settings: erythromycin; compound at MIC/4; Set 1
Lab note: record the figure alone, no unit after it.

>>> recorded_result("CC(C)=CCCC(C)=CCNCCCNCCCCNCCCN (racemic)")
8

API: value(readout=MIC ratio(*) on Ea289ΔacrB Ery, system=Ea289ΔacrB (Ea294)) for record CC(C)=CCC/C(C)=C/CC/C(C)=C/CNCCCNCCCCNCCCN
16

API: value(readout=MIC ratio(*) on Ea289ΔacrB Ery, system=Ea289ΔacrB (Ea294)) for record CC(C)=CCC/C(C)=C/CC/C(C)=C/CNCCCN(CCCN)CCCN
8

API: value(readout=MIC ratio(*) on Ea289ΔacrB Ery, system=Ea289ΔacrB (Ea294)) for record CC(C)=CCCC(C)=CCNCCCN(CCCN)CCCN (racemic)
16
